measured-target: human TLR7 (Homo sapiens (Human), UniProt Q9NYK1)
Sequence (Q9NYK1 27-1049): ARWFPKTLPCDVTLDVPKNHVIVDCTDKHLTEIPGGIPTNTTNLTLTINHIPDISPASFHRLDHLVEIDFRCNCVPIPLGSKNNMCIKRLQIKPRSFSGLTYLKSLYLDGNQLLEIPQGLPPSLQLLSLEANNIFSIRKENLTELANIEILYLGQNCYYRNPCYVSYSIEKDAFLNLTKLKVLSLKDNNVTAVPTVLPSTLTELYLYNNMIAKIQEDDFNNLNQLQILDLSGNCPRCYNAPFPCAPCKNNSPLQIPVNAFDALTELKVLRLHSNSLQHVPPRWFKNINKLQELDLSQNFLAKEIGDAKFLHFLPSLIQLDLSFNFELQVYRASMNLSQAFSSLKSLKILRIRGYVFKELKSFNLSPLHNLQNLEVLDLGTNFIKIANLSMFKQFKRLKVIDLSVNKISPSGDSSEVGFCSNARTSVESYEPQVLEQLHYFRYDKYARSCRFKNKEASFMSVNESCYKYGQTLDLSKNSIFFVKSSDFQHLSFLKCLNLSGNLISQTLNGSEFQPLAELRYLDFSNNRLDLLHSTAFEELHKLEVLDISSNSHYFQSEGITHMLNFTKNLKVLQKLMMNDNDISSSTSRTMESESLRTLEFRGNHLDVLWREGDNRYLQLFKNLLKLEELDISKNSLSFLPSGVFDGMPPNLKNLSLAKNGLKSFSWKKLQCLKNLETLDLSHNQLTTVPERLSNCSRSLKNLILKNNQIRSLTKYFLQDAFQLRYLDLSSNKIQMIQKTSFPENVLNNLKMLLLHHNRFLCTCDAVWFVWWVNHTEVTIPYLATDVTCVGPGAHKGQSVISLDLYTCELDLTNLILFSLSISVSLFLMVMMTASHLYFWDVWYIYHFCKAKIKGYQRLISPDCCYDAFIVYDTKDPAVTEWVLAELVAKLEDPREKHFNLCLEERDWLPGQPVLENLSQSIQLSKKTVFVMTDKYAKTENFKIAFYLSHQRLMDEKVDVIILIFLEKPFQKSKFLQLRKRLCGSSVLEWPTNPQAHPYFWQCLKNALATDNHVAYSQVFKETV
test-summary: TLR7 inhibition reporter assay (HEK-Blue, SEAP)
setup-conditions: HEK-Blue cells overexpressing human TLR7, gardiquimod 7.5 μM stimulation
pIC50: −log10 of the molar value.
quantity-name: pIC50

See these solved cases before continuing.
>>> meas_value("CC(C)c1c(-c2ccnc3[nH]ncc23)[nH]c2ccc(-c3nnc([C@@H]4CCCNC4)o3)cc12")
7.27
>>> meas_value("Cc1cc(-c2[nH]c3ccc(-c4nc5c(s4)CCNC5)cc3c2C(C)C)cc(C)n1")
8.47

[A] CNCCN1CCn2nc(-c3ccc4[nH]c(-c5ccnc(C)c5)c(C(C)C)c4c3)c(C(=O)NC)c2C1
[B] COc1ccc(-c2[nH]c3ccc(-c4ccc(OC5CCN(CC(C)C)CC5)cc4)cc3c2C(C)C)cc1OC
Query :: Field: entry with larger pIC50 (options A / B ). # answer = label of selected item
Result :: A
(A: 6.79, B: 6.20)

[A] Cc1cc(-c2[nH]c3ccc(-c4nnc([C@@H]5CCNC5)o4)cc3c2C(C)C)ccn1
[B] COc1ccc(-c2ccc3[nH]c(-c4ccnc5[nH]ncc45)c(C(C)C)c3c2)cn1
Query :: // compare measured pIC50, left A , right B , return larger To answer, give the label that identifies your chosen option.
Result :: A
